Exercise: for every item that follows, state its recorded TGI.
- Test system: SF-268 CNS
- experiment.notes: NCI tumour cell line growth inhibition, 48 h

>  <chemical.structure>
CC(C)(C)C(=O)[CH-]C(=O)C(F)(F)C(F)(F)C(F)(F)F.CC(C)(C)C(=O)[CH-]C(=O)C(F)(F)C(F)(F)C(F)(F)F.[O-]CC1OC(O)C(O)C(O)C1O.[O-]CC1OC(O)C(O)C(O)C1O.[Ti+4]

>  <measured.value>
> 100 µM

$$$$
>  <chemical.structure>
COc1ccc(-n2cc(-c3ccc(OC)c(OC)c3)nc2SCc2ccccc2)cc1Cl

>  <measured.value>
> 100 µM

$$$$

Moving on to the next compound.
Ask | Provide the reported TGI (system: SF-268 CNS) for `O=C(NNC(=O)c1ccccc1Cl)c1ccccc1O`
Reply | > 100 µM

====

Would you kindly list TGI for each of these compounds?
- System: SF-268 CNS
- experiment.notes: NCI tumour cell line growth inhibition, 48 h

Guide cases for TGI, answers given:
>  <compound>
Cc1nc(N)sc1C(=O)/C=C/c1ccc([N+](=O)[O-])cc1

>  <target.of.assay>
SF-268 CNS

>  <measured.value>
> 100 µM

$$$$
>  <compound>
C=C=[CH][Sn]([c]1ccccc1)([c]1ccccc1)[c]1ccccc1

>  <target.of.assay>
SF-268 CNS

>  <measured.value>
3.66 µM

$$$$
>  <compound>
Cc1cc2c(C(C)C)c(O)c(O)c(C=O)c2c(O)c1-c1c(C)cc2c(C(C)C)c(O)c(O)c(C=O)c2c1O (tested in a mixture with another compound)

>  <target.of.assay>
SF-268 CNS

>  <measured.value>
3.26 µM

$$$$
>  <compound>
C=CCC1=CC2(OC)C(=O)C(OC)(OC)C1C1C(OC)(OC)C(=O)C(OC)=CC12CC=C (stereo not given)

>  <target.of.assay>
SF-268 CNS

>  <measured.value>
> 100 µM

$$$$
>  <compound>
CC(C)(C)OC(=O)N/N=C(/N)c1ccccc1

>  <target.of.assay>
SF-268 CNS

>  <measured.value>
> 100 µM

$$$$
>  <compound>
CCOc1cc(/C=N\NC(=O)N/N=C/c2ccc(O)c(OCC)c2)ccc1O

>  <target.of.assay>
SF-268 CNS

>  <measured.value>
> 100 µM

$$$$
>  <compound>
CC(C)(C)C[P+](C)(C)c1ccccc1

>  <target.of.assay>
SF-268 CNS

>  <measured.value>
> 100 µM

$$$$
>  <compound>
O=C(CCO)OCCCCCC/C=C\CCCCCC/C=C\CCCCCCCCOC(=O)CCO

>  <target.of.assay>
SF-268 CNS

>  <measured.value>
32.5 µM

$$$$

For the 4 compounds below, give their TGI values.
1. NC(=O)CCC(NC(=O)C(F)(F)F)C(=O)O (stereo not given)
2. c1cnc2c(c1)Nc1cnncc1S2
3. COc1ccc(-n2c(=O)n(C)c(=O)n2-c2c(C)c(C)c(C)c(C)c2C)cc1
4. Cc1sc(/N=C2/NC(=O)CS2)nc1-c1nc(/N=C2/NC(=O)CS2)sc1C

Reply |
1. > 100 µM
2. > 100 µM
3. > 100 µM
4. > 50 µM

====

- Test system: NCI-H460 lung
- experiment.notes: NCI tumour cell line growth inhibition, 48 h
Field: TGI. Provide a value for each of the compounds that follow.
Answers are plain numbers, in µM.

>  <compound>
CC(C)NC(=O)O/N=C1\CCC2[C@@H]3CC=C4C[C@@H](OC(=O)NC(C)C)CC[C@]4(C)C3CC[C@]12C (stereo not given in full)

>  <target.of.assay>
NCI-H460 lung

>  <scale.unit>
µM

>  <measured.value>
3.06

$$$$

For the next question, use this compound.
Ask | // fetch TGI given entry `O=[N+]([O-])c1cc(/C=N/NS(=O)(=O)c2ccc(F)cc2)c(O)c([N+](=O)[O-])c1`
Reply | 84

====

Can you tell me TGI for the items I'm about to list?
- System: OVCAR-5 ovarian
- experiment.notes: NCI tumour cell line growth inhibition, 48 h

>  <molecule>
O=C(NC/C(Cl)=C/Cl)Nc1cccc2c1CCCC2

>  <TGI>
> 100 µM

$$$$
>  <molecule>
O=C(Nc1ccc(F)cc1)c1cc2ccc(O)cc2oc1=Nc1ccccc1F

>  <TGI>
> 100 µM

$$$$
>  <molecule>
Oc1[nH]c2ccccc2c1N=NC(=S)N1CCCC1

>  <TGI>
> 82.6 µM

$$$$

Ask | Return TGI (reported value) for this molecule: COc1cc(C2C(C#N)=C(N)Oc3cc4c(cc32)OCO4)cc2c1OCO2 (centres undefined)
Reply | > 100 µM

====

Kindly supply the reported TGI values for the records listed here.
- Tested on: COLO 205 colon
- experiment.notes: NCI tumour cell line growth inhibition, 48 h

Fill in TGI for each of the 5 compounds listed.
1. CC1C(=O)C23OC[C@@]1(C)C1(O)CC[C@@H](C)[C@]21CC3=O (stereo not given in full)
2. COC(=O)CCc1ccc2c(c1)CC1(C2)Cc2ccc3c(c2C1)CCC3 (stereo not given)
3. COC(=O)c1cc(C)n(NC(=O)OC(C)(C)C)c1C
4. Cc1ccc(-c2cc(/C=N/O)on2)cc1
5. Nc1cccc2nsnc12

Reply |
1: > 100 µM; 2: > 100 µM; 3: > 100 µM; 4: > 100 µM; 5: > 100 µM

====

Assign TGI to each entry below.
- Tested on: SR leukemia
- experiment.notes: NCI tumour cell line growth inhibition, 48 h

Some solved entries appear below for comparison.
>  <compound>
ClCC1(CCl)COC1

>  <measured.endpoint>
TGI

>  <measured.value>
> 100 µM

$$$$
>  <compound>
CCOC(=O)CNC(=O)C(CSC(=O)N(C)O)NC(=O)CCC(N)C(=O)O (stereo not drawn)

>  <measured.endpoint>
TGI

>  <measured.value>
1.02 µM

$$$$

Next item in the queue.
Ask | Complete the entry with TGI for `C[C@H](O)C(=O)SC[C@H](NC(=O)CC[C@@H](N)C(=O)O)C(=O)NCC(=O)O`
Reply | > 100 µM

====

- Tested on: HOP-62 NSCLC
- experiment.notes: NCI tumour cell line growth inhibition, 48 h
Would you kindly list TGI for each of these compounds?

Solved entries (count: 2):
>  <compound>
COc1ccccc1OC(=O)/C=C/c1ccccc1

>  <target.of.assay>
HOP-62 NSCLC

>  <TGI>
> 100 µM

$$$$
>  <compound>
CC(C)Cc1cccc(C(C)C)c1NC(=O)CCC(=O)N/N=C1\C(=N/NC(=O)CCC(=O)Nc2c(C(C)C)cccc2C(C)C)C(c2ccc3c(c2)OCO3)Oc2ccccc21 (stereo not drawn)

>  <target.of.assay>
HOP-62 NSCLC

>  <TGI>
> 100 µM

$$$$

As a next step, examine the compound that follows.
Ask | Note down TGI recorded for `N#CC[C@H](C1CCCC1)n1cc(-c2ncnc3[nH]ccc23)cn1`
Reply | > 100 µM

====

- Test system: RXF 393 renal
- experiment.notes: NCI tumour cell line growth inhibition, 48 h
measured.endpoint: TGI

For each listed entry, give its TGI.
1. O=C(/N=C/c1c(O)c2ccccc2oc1=O)NC1CCCCC1
2. COCC12CC(CC1=O)C1C2ON2c3ccccc3C(=O)C12c1ccccc1 (stereo not given)
3. COc1cccc(-c2cc(=O)c3cccnc3[nH]2)c1
4. NC(=O)CCC(NC(=O)C(F)(F)F)C(=O)O (stereo not given)

Reply |
1: > 100 µM; 2: > 100 µM; 3: > 100 µM; 4: > 100 µM

The following molecules each have a reported value; give each one's TGI.
1. O=C(O)c1cc(N(Cc2ccccc2O)Cc2cc(O)ccc2O)ccc1O
2. COc1ccc(NC(=O)O[C@H]2[C@H](O[C@H]3[C@@H](O)COC(O[C@H]4C[C@H]5[C@@H]6CC=C7C[C@@H](O)CC[C@]7(C)[C@H]6CC[C@]5(C)[C@H]4[C@H](C)C(=O)CCC(C)C)[C@@H]3OC(C)=O)OC[C@@H](O)[C@@H]2O)cc1 (stereo not given in full)
3. CC(C)c1cccc(C(C)C)c1NC1=CC(=O)C(=O)c2ccccc21
4. CCOC(=O)CC(N1CC1)N1CC1
5. COC(=O)c1cc(C)n(NC(=O)OC(C)(C)C)c1C

Reply |
["> 100 µM", "< 0.01 µM", "> 100 µM", "> 10 µM", "> 100 µM"]

Give me TGI for each of these molecules, listed below.
1. Cc1onc(-c2c(F)cccc2Cl)c1C(=O)N[C@@H]1C(=O)N2[C@@H]1SC(C)(C)[C@@H]2C(=O)O
2. COC(=O)CNC(=O)Nc1cc(N2C(=O)ON3C2C(C)(C)N(O)C3(C)C)ccc1C (stereo not given)

Reply |
["> 100 µM", "> 100 µM"]

Items follow; give TGI for each.
1. CC(C)Cc1cccc(C(C)C)c1NC(=O)CCC(=O)N/N=C1\C(=N/NC(=O)CCC(=O)Nc2c(C(C)C)cccc2C(C)C)C(c2ccc3c(c2)OCO3)Oc2ccccc21 (stereo not given)
2. Cn1c2c(cc(-c3ccccc3)c1=O)COc1ccccc1-2
3. Cc1cc2c(=O)[nH]nc(N)c2c(N)n1

Reply |
1: > 100 µM; 2: > 100 µM; 3: > 100 µM

Ask | Quick one: give measured TGI for N#CC(c1ccccc1)N(CCc1ccccc1)C(=O)Oc1ccccc1 (stereo not given)
Reply | > 100 µM
